Assay Target: CB1 cannabinoid receptor (Rattus norvegicus, UniProt P20272)
Construct: membranes were prepared from rat forebrain membranes; from tissue; host or cells: rat forebrain membranes
Sequence (P20272 whole entry): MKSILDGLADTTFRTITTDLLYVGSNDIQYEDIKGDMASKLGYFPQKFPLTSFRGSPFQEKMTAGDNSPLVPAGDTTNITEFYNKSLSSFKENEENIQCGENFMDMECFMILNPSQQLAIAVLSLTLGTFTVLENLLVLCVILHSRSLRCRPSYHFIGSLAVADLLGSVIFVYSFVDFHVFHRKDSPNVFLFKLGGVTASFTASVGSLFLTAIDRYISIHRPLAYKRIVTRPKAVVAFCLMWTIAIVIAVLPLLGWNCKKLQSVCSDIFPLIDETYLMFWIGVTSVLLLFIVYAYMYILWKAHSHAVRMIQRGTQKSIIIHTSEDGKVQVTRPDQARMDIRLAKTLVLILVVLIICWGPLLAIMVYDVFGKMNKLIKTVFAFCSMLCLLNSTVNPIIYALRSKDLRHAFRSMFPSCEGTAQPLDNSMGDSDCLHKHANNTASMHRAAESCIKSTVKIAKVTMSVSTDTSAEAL
Assay Comment: CB1 receptor binding assay ([3H]CP-55,940 displacement), with and without PMSF
Condition: rat forebrain membranes, PMSF-treated; read-out: KI (CB1), with PMSF
Record form. Attribute: Ki. Fill in for each entry.

CCCCCC=CCC=CCC=CCC=CCCCC(=O)NCCCCl [Analog 6, N-(3-Chloropropyl)arachidonylamide] on CB1 cannabinoid receptor (Rattus norvegicus, UniProt P20272) gives Ki = 25.6 nM

"CCCCC/C=C\C/C=C\C/C=C\C/C=C\CCCC(=O)N[C@@H](C)CF" on CB1 cannabinoid receptor (Rattus norvegicus, UniProt P20272) gives Ki = 0.91 nM

"CCCCC/C=C\C/C=C\C/C=C\C/C=C\CCCC(=O)N[C@H](C)CF" on CB1 cannabinoid receptor (Rattus norvegicus, UniProt P20272) gives Ki = 1.18 nM

CCCCCC=CCC=CCC=CCC=CCCCC(=O)NCC(F)(F)F [Analog 9, N-(2,2,2-Trifluroethyl) arachidonylamide] on CB1 cannabinoid receptor (Rattus norvegicus, UniProt P20272) gives Ki = 36.2 nM

C#CCNC(=O)CCC/C=C\C/C=C\C/C=C\C/C=C\CCCCC [Analog 8, N-Propargylarachidonylamide] on CB1 cannabinoid receptor (Rattus norvegicus, UniProt P20272) gives Ki = 10.8 nM

"CCCCC/C=C\C/C=C\C/C=C\C/C=C\CCCCNC(=O)COC(C)=O" on CB1 cannabinoid receptor (Rattus norvegicus, UniProt P20272) gives Ki = 421 nM

CCCCCC=CCC=CCC=CCC=CCCCC(=O)NCCCl [Analog 5, N-(2-Chloroethyl)arachidonylamide] on CB1 cannabinoid receptor (Rattus norvegicus, UniProt P20272) gives Ki = 5.29 nM

"CCCCC/C=C\C/C=C\C/C=C\C/C=C\CCCCNC(=O)CO" on CB1 cannabinoid receptor (Rattus norvegicus, UniProt P20272) gives Ki = 20 nM

###

Assay Target: CB1 cannabinoid receptor (Rattus norvegicus, UniProt P20272)
Construct: membranes were prepared from rat forebrain membranes; from tissue; host or cells: rat forebrain membranes
Assay Comment: CB1 receptor binding assay ([3H]CP-55,940 displacement), with and without PMSF
Condition: rat forebrain membranes, without PMSF (anandamide amidase active); read-out: KI (CB1), without PMSF
Lab note: cut-off is 100 nM. Strictly less in Ki is True. Exactly 100 nM or more is False.

Q. A record lists CCCCCC=CCC=CCC=CCC=CCCCC(=O)NCC(F)(F)F [Analog 9, N-(2,2,2-Trifluroethyl) arachidonylamide] . Is its Ki below 100 nM?
A. False

Q. A record lists CCCCCC=CCC=CCC=CCC=CCCCC(=O)NCCCl [Analog 5, N-(2-Chloroethyl)arachidonylamide] . Is its Ki below 100 nM?
A. False

Q. A record lists C=CCNC(=O)CCC/C=C\C/C=C\C/C=C\C/C=C\CCCCC [Analog 7, N-Allylarachidonylamide] . Is its Ki below 100 nM?
A. False

Q. A record lists "CCCCC/C=C\C/C=C\C/C=C\C/C=C\CCCC(=O)N[C@H](C)CF" . Is its Ki below 100 nM?
A. True

Q. A record lists CCCCC/C=C\C/C=C\C/C=C\C/C=C\CCCCNC(=O)CCO [Analog 10, N-(3-Hydroxypropionyl)arachidonylamine] . Is its Ki below 100 nM?
A. False

Q. A record lists C#CCNC(=O)CCC/C=C\C/C=C\C/C=C\C/C=C\CCCCC [Analog 8, N-Propargylarachidonylamide] . Is its Ki below 100 nM?
A. False

Q. A record lists CCCCCC=CCC=CCC=CCC=CCCCC(=O)NCCCCl [Analog 6, N-(3-Chloropropyl)arachidonylamide] . Is its Ki below 100 nM?
A. False

Q. A record lists "CCCCC/C=C\C/C=C\C/C=C\C/C=C\CCCCNC(=O)CO" . Is its Ki below 100 nM?
A. True

Q. A record lists "CCCCC/C=C\C/C=C\C/C=C\C/C=C\CCCCNC(=O)COC(C)=O" . Is its Ki below 100 nM?
A. False

Q. A record lists CCCCC/C=C\C/C=C\C/C=C\C/C=C\CCCC(=O)N[C@H](C)CN=[N+]=[N-] (racemic) . Is its Ki below 100 nM?
A. True

Q. A record lists "CCCCC/C=C\C/C=C\C/C=C\C/C=C\CCCC(=O)N[C@@H](C)CF" . Is its Ki below 100 nM?
A. True
